Measured values drawn from patent US8227612B2 for this set.

- Tested on: hyperlipidemia quail
- Test Name: Lipid-lowering in vivo experiments in hyperlipidemia quail
- Applied Conditions: High: 20 mg/kg, oral; blood after four weeks hypercholesterol diet
Attribute Measured: TG
Please report the result as a number followed by the unit.

{"columns": ["Compound", "Tested Target", "TG"],
 "data": [
  ["O=C([O-])C[C@H](O)C[C@H](O)/C=C/c1cnc2cc(Cl)c(F)cc2c1Oc1ccc(F)cc1.O=C([O-])C[C@H](O)C[C@H](O)/C=C/c1cnc2cc(Cl)c(F)cc2c1Oc1ccc(F)cc1.[Ca+2] [Compound A14]", "hyperlipidemia quail", "0.96 mmol/L"],
  ["CC(C)c1c(C(=O)Nc2ccccc2)c(-c2ccccc2)c(-c2ccc(F)cc2)n1CC[C@@H](O)C[C@@H](O)CC(=O)O [Atorvastatin, reference compound]", "hyperlipidemia quail", "0.76 mmol/L"],
  ["O=C([O-])C[C@H](O)C[C@H](O)/C=C/c1cnc2c(F)c(F)c(F)cc2c1Sc1ccc(F)cc1.O=C([O-])C[C@H](O)C[C@H](O)/C=C/c1cnc2c(F)c(F)c(F)cc2c1Sc1ccc(F)cc1.[Ca+2] [Compound A8]", "hyperlipidemia quail", "0.45 mmol/L"],
  ["CC(C)c1ccc(Sc2cc3ncc(/C=C/[C@@H](O)C[C@@H](O)CC(=O)[O-])c(Sc4ccc(C(C)C)cc4)c3cc2F)cc1.CC(C)c1ccc(Sc2cc3ncc(/C=C/[C@@H](O)C[C@@H](O)CC(=O)[O-])c(Sc4ccc(C(C)C)cc4)c3cc2F)cc1.[Ca+2] [Compound A13]", "hyperlipidemia quail", "0.35 mmol/L"],
  ["COc1cccc(Sc2cc3ncc(/C=C/[C@@H](O)C[C@@H](O)CC(=O)[O-])c(Sc4cccc(OC)c4)c3cc2F)c1.COc1cccc(Sc2cc3ncc(/C=C/[C@@H](O)C[C@@H](O)CC(=O)[O-])c(Sc4cccc(OC)c4)c3cc2F)c1.[Ca+2] [Compound A5]", "hyperlipidemia quail", "0.58 mmol/L"]
]}

(Q) Sample COc1cccc(Sc2c(/C=C/[C@@H](O)C[C@@H](O)CC(=O)[O-])cnc3cc(Cl)c(F)cc23)c1.COc1cccc(Sc2c(/C=C/[C@@H](O)C[C@@H](O)CC(=O)[O-])cnc3cc(Cl)c(F)cc23)c1.[Ca+2] [Compound A11] — what was its TG?
(A) 0.42 mmol/L

(Q) Sample CC(C)Sc1ccc(-c2c(/C=C/[C@@H](O)C[C@@H](O)CC(=O)[O-])cnc3c(F)c(F)c(F)cc23)cc1.CC(C)Sc1ccc(-c2c(/C=C/[C@@H](O)C[C@@H](O)CC(=O)[O-])cnc3c(F)c(F)c(F)cc23)cc1.[Ca+2] [Compound A6] — what was its TG?
(A) 4.47 mmol/L

* * *

- Tested on: hyperlipidemia quail
- Test Name: Lipid-lowering in vivo experiments in hyperlipidemia quail
- Applied Conditions: High: 20 mg/kg, oral; blood after four weeks hypercholesterol diet
Attribute Measured: LDL-C (mmol/L)
Entry rule: numbers only, all in mmol/L.

(Q) Sample CC(C)c1ccc(Sc2cc3ncc(/C=C/[C@@H](O)C[C@@H](O)CC(=O)[O-])c(Sc4ccc(C(C)C)cc4)c3cc2F)cc1.CC(C)c1ccc(Sc2cc3ncc(/C=C/[C@@H](O)C[C@@H](O)CC(=O)[O-])c(Sc4ccc(C(C)C)cc4)c3cc2F)cc1.[Ca+2] [Compound A13] — what was its LDL-C?
(A) 3.95

(Q) Sample COc1cccc(Sc2cc3ncc(/C=C/[C@@H](O)C[C@@H](O)CC(=O)[O-])c(Sc4cccc(OC)c4)c3cc2F)c1.COc1cccc(Sc2cc3ncc(/C=C/[C@@H](O)C[C@@H](O)CC(=O)[O-])c(Sc4cccc(OC)c4)c3cc2F)c1.[Ca+2] [Compound A5] — what was its LDL-C?
(A) 6.40

(Q) Sample CC(C)Sc1ccc(-c2cc3c(-c4ccc(SC(C)C)cc4)c(/C=C/[C@@H](O)C[C@@H](O)CC(=O)O)cnc3c(-c3ccc(SC(C)C)cc3)c2-c2ccc(SC(C)C)cc2)cc1 [Compound A1] — what was its LDL-C?
(A) 3.63

(Q) Sample O=C([O-])C[C@H](O)C[C@H](O)/C=C/c1cnc2c(F)c(Oc3ccccc3)c(F)cc2c1Oc1ccccc1.O=C([O-])C[C@H](O)C[C@H](O)/C=C/c1cnc2c(F)c(Oc3ccccc3)c(F)cc2c1Oc1ccccc1.[Ca+2] [Compound A12] — what was its LDL-C?
(A) 2.52

(Q) Sample O=C([O-])C[C@H](O)C[C@H](O)/C=C/c1cnc2c(Oc3ccccc3)c(Oc3ccccc3)c(Oc3ccccc3)cc2c1Oc1ccccc1.O=C([O-])C[C@H](O)C[C@H](O)/C=C/c1cnc2c(Oc3ccccc3)c(Oc3ccccc3)c(Oc3ccccc3)cc2c1Oc1ccccc1.[Ca+2] [Compound A9] — what was its LDL-C?
(A) 4.08

(Q) Sample CC(C)Sc1ccc(-c2c(/C=C/[C@@H](O)C[C@@H](O)CC(=O)[O-])cnc3c(F)c(F)c(F)cc23)cc1.CC(C)Sc1ccc(-c2c(/C=C/[C@@H](O)C[C@@H](O)CC(=O)[O-])cnc3c(F)c(F)c(F)cc23)cc1.[Ca+2] [Compound A6] — what was its LDL-C?
(A) 3.66

(Q) Sample O=C([O-])C[C@H](O)C[C@H](O)/C=C/c1cnc2cc(Cl)c(F)cc2c1Oc1ccc(F)cc1.O=C([O-])C[C@H](O)C[C@H](O)/C=C/c1cnc2cc(Cl)c(F)cc2c1Oc1ccc(F)cc1.[Ca+2] [Compound A14] — what was its LDL-C?
(A) 3.62

(Q) Sample O=C([O-])C[C@H](O)C[C@H](O)/C=C/c1cnc2c(F)c(F)c(F)cc2c1Sc1ccc(F)cc1.O=C([O-])C[C@H](O)C[C@H](O)/C=C/c1cnc2c(F)c(F)c(F)cc2c1Sc1ccc(F)cc1.[Ca+2] [Compound A8] — what was its LDL-C?
(A) 1.94

(Q) Sample CC(C)c1c(C(=O)Nc2ccccc2)c(-c2ccccc2)c(-c2ccc(F)cc2)n1CC[C@@H](O)C[C@@H](O)CC(=O)O [Atorvastatin, reference compound] — what was its LDL-C?
(A) 2.51

(Q) Sample COc1cccc(Sc2c(/C=C/[C@@H](O)C[C@@H](O)CC(=O)[O-])cnc3cc(Cl)c(F)cc23)c1.COc1cccc(Sc2c(/C=C/[C@@H](O)C[C@@H](O)CC(=O)[O-])cnc3cc(Cl)c(F)cc23)c1.[Ca+2] [Compound A11] — what was its LDL-C?
(A) 4.30
